Hey, just so you know, these numbers are from PubChem BioAssay (NCATS).

Assay: Cell Viability qHTS for small molecule stabilizers of the endoplasmic reticulum resident proteome (AID 1508629);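 also: human SH-SY5Y neuroblastoma cells carrying the GLuc-SERCaMP reporter; compound exposure about 46 h in total before the viability read; % is scaled to controls: 0 for no effect and ±100 for the full control effect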
Settings: cell viability counter-screen, 100 nM thapsigargin for final 4 h
Text: Assay Provider: Brandon K. Harvey Ph.D. National Institute on Drug Abuse, National Institutes of Health, Baltimore, MD Endoplasmic reticulum (ER) dysregulation is associated with human pathologies including neurodegenerative, cardiovascular, muscular, and diabetic conditions. […] To identify such compounds, we performed a quantitative high-throughput screen (qHTS) using the SERCaMP assay, which monitors secretion of ER resident proteins triggered by calcium depletion. […]
Records with an inconclusive call do not appear. Active and inactive are the calls of the source. Calls follow the shape of the dose curve; as a rule, active = well fitted cell-killing curve with a large enough effect; inconclusive = small, poorly fitted or top-dose-only effect, or effect the other way; inactive = no such curve, though single readings can be large or run the other way.
Examples of compounds with documented max response follow.

Below: 3 compounds and their reported max response.
>  <COMPOUND>
NC1CCc2cc(O)c(O)cc2C1 (centres undefined)

>  <max response>
25.8% (inactive)

$$$$
>  <COMPOUND>
Nc1c(Cl)c(Cl)c(Cl)c(Cl)c1Cl

>  <max response>
1.55% (inactive)

$$$$
>  <COMPOUND>
Nc1ccc(Cl)cc1N

>  <max response>
1.89% (inactive)

$$$$

Turning now to a further compound:
max response recorded for this compound, c1ccc2c(CN3CCNCC3)cccc2c1 , is 15% (inactive)

----------
Assay: Quantitative High-Throughput drug screen in 47 multiple myeloma cell lines against the NCATS MIPE library collection: KMM1_JCRB cell viability assay (AID 1918960); also: nearly all actives have a fitted effect of over 30% in size
Details: KMM1 myeloma viability, CellTiter-Glo ATP luminescence, 48 h; series mostly up to 45.8 µM
Results filed as inconclusive are left out. Activity calls are given as the source filed them. Calls come from the whole dose curve; as a rule, active = well fitted cell-killing curve with a large enough effect; inconclusive = small, poorly fitted or top-dose-only effect, or effect the other way; inactive = no such curve, though single readings can be large or run the other way.
Pick one and only one: 1 = active, -1 = inactive

>  <COMPOUND>
O=S(=O)(CC1CS1)c1ccc(Oc2ccccc2)cc1 (configuration not stated)

>  <LABEL VALUE>
1

$$$$

Any idea what this test logged for CCCN1CCO[C@@H]2c3cc(O)ccc3OC[C@@H]21 ?
-1

Any idea what this test logged for Cc1c(N)nc([C@H](CC(N)=O)NC[C@@H](N)C(N)=O)nc1C(=O)N[C@H](C(=O)N[C@@H](C)[C@H](O)[C@@H](C)C(=O)N[C@@H](C(=O)NCCc1nc(-c2nc(C(=O)NCCC[S+](C)C)cs2)cs1)[C@@H](C)O)C(O[C@H]1O[C@H](CO)[C@H](O)[C@@H](O)[C@@H]1O[C@H]1O[C@H](CO)[C@@H](O)[C@H](OC(N)=O)[C@H]1O)c1cnc[nH]1 (some centres not stated) ?
1

Any idea what this test logged for CC(O)=C(C#N)C(=O)Nc1cc(Br)ccc1Br ?
-1

----------
Assay: Quantitative High-Throughput drug screen in 47 multiple myeloma cell lines against the NCATS MIPE library collection: H1112_PLB cell viability assay (AID 1918967; also: nearly all actives have a fitted effect of over 30% in size)
Conditions: H1112 myeloma cells viability, ATP luminescence, 48 h; series mostly up to 45.8 µM
Results filed as inconclusive are left out. Calls of active or inactive are those of the source. The call rests on the fitted dose curve; in most records, active means well fitted cell-killing curve with a large enough effect; inconclusive means small, poorly fitted or top-dose-only effect, or effect the other way; inactive means no such curve, though single readings can be large or run the other way.
Pick one and only one: active, inactive

Known results for compounds:
>  <MOL SMILES>
Cc1[nH]nc2ccc(-c3cncc(OC[C@@H](N)Cc4c[nH]c5ccccc45)c3)cc12

>  <LABEL VALUE>
active

$$$$
>  <MOL SMILES>
COc1cccc2c1[C@]13CCN(CC4CC4)[C@H](C2)[C@]1(OC)CCC(=O)C3

>  <LABEL VALUE>
inactive

$$$$
>  <MOL SMILES>
C[C@]12Cc3cn[nH]c3C[C@@H]1CC[C@@H]1[C@H]2CC[C@@]2(C)[C@H]1CC[C@]2(C)O

>  <LABEL VALUE>
inactive

$$$$
>  <MOL SMILES>
COC[C@H]1OC(=O)c2coc3c2[C@@]1(C)C1=C(C3=O)[C@@H]2CC[C@H](O)[C@@]2(C)C[C@@H]1OC(C)=O

>  <LABEL VALUE>
active

$$$$
>  <MOL SMILES>
CCc1c(C(=O)C(N)=O)c2c(OCC(=O)O)cccc2n1Cc1ccccc1

>  <LABEL VALUE>
inactive

$$$$

Any idea what this test logged for CN(C)[C@@H]1C(=O)C(C(N)=O)=C(O)[C@@]2(O)C(=O)C3=C(O)c4c(O)cccc4[C@@](C)(O)[C@H]3[C@H](O)[C@@H]12 ?
inactive

Any idea what this test logged for CC(=O)Nc1ccc(OC[C@](C)(O)C(=O)Nc2ccc([N+](=O)[O-])c(C(F)(F)F)c2)cc1 ?
inactive

Any idea what this test logged for CCOC(=O)c1cncn1[C@H](C)c1ccccc1 ?
inactive

----------
Test system: CP286
Test: qHTS profiling for inhibitors of Plasmodium falciparum proliferation (AID 504749); also: nearly all actives have a fitted effect of over 60% in size
Conditions: P. falciparum in erythrocytes, SYBR Green DNA, 72 h; series mostly up to 28.7 µM
Results filed as inconclusive are left out. Activity calls are given as the source filed them. Calls come from the whole dose curve; as a rule, active = well fitted inhibition curve with a large enough effect; inconclusive = small, poorly fitted or top-dose-only effect; inactive = flat fitted curve, though single readings scatter.
Pick one and only one: active, inactive

Known results for compounds:
>  <COMPOUND>
CCCCCCCCCCCCCCCC[N+](C)(C)C

>  <LABEL VALUE>
active

$$$$
>  <COMPOUND>
CC(C)NC(C)Cc1ccc(I)cc1 (stereo not drawn)

>  <LABEL VALUE>
inactive

$$$$

Any idea what this test logged for COC(=O)[C@@H](N)CCCN=C(N)N[N+](=O)[O-] ?
inactive

Any idea what this test logged for NC(=O)CN1CC(O)CC1=O (stereo not drawn) ?
inactive

Any idea what this test logged for CCCN1CCC[C@H](c2cccc(O)c2)C1 ?
inactive

Any idea what this test logged for CCCCc1ccc(C(=O)O)nc1 ?
inactive

Any idea what this test logged for C#CC1(O)CCC2C3CCC4=CC(=O)CCC4(C)C3CCC21C (stereo not drawn) ?
inactive

Any idea what this test logged for O=C(O)COc1ccccc1 ?
inactive

----------
Biological target: N-terminal Xaa-Pro-Lys N-methyltransferase 1 (Homo sapiens)
Assay: qHTS Assay for Inhibitors of N-terminal methyltransferase 1 (NTMT1): LOPAC validation of the NTMT1 SAHH-coupled ThioGlo3 Assay (AID 1347143);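 also: SAH from peptide methylation measured as thiol fluorescence via SAHH coupling and ThioGlo3; nearly all actives have a fitted effect of over 70% in size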
Conditions: recombinant NTMT1, SAHH-coupled ThioGlo3 fluorescence; series mostly up to 114 µM
Records with an inconclusive call do not appear. Activity calls are given as the source filed them. Calls follow the shape of the dose curve; as a rule, active = well fitted inhibition curve with a large enough effect; inconclusive = small, poorly fitted or top-dose-only effect; inactive = no such curve, though single readings can be large or run the other way.
Pick one and only one: active, inactive

Known results for molecules:
>  <MOLECULE>
CC1=NN=C(c2ccc(N)cc2)c2cc3c(cc2C1)OCO3

>  <LABEL VALUE>
active

$$$$
>  <MOLECULE>
CC[C@@H](C(N)=O)N1CCCC1=O

>  <LABEL VALUE>
inactive

$$$$
>  <MOLECULE>
CCCN1CCC[C@H](c2cccc(O)c2)C1

>  <LABEL VALUE>
inactive

$$$$
>  <MOLECULE>
NC(=NCCC[C@H](N)C(=O)O)N[N+](=O)[O-]

>  <LABEL VALUE>
inactive

$$$$
>  <MOLECULE>
c1ccc2sc(C3(N4CCCCC4)CCCCC3)cc2c1

>  <LABEL VALUE>
inactive

$$$$
>  <MOLECULE>
C=CCN1CC[C@]23CCCCC2[C@H]1Cc1ccc(O)cc13 (stereo partly drawn)

>  <LABEL VALUE>
inactive

$$$$

Any idea what this test logged for O=C1CCCN1CC#CCN1CCCC1 ?
inactive

Any idea what this test logged for C[C@@H]1O[C@H](C[N+](C)(C)C)C[C@H]1O ?
inactive

Any idea what this test logged for CCCN(CCC)C1CCc2ccc(O)cc2C1 (stereo not drawn) ?
inactive

Any idea what this test logged for O=C(O)Cc1cnc[nH]1 ?
inactive

Any idea what this test logged for C[C@]12CCC3C(CC[C@H]4C[C@H](O)CC[C@]34C)C1CC[C@@H]2C(=O)CO (stereo partly drawn) ?
inactive

----------
Experiment: qHTS of pediatric cancer cell lines to identify multiple opportunities for drug repurposing: Primary screen for SJ-GBM2 cells (AID 1347091)
Settings: SJ-GBM2 viability, CellTiter-Glo luminescence, 48 h; series mostly up to 46 µM
Inconclusive results are not listed. The source made the active and inactive calls. The call rests on the fitted dose curve; in most records, active means well fitted cell-killing curve with a large enough effect; inconclusive means small, poorly fitted or top-dose-only effect; inactive means no such curve, though single readings can be large or run the other way.
Pick one and only one: active, inactive

Any idea what this test logged for O=C(O)COc1nc(Cl)c(Cl)cc1Cl ?
inactive

Any idea what this test logged for COc1cccc2c1[C@]13CCN(CC4CC4)[C@H](C2)[C@]1(OC)CCC(=O)C3 ?
inactive

Any idea what this test logged for O=C(O)CCCOc1ccc(Cl)cc1Cl ?
inactive

Any idea what this test logged for Nc1ccc(Cl)cc1N ?
inactive

Any idea what this test logged for c1cc2ccc3cccc4ccc(c1)c2c34 ?
inactive

Any idea what this test logged for CC(=O)O[C@@]12CO[C@H]1C[C@H](O)[C@@]1(C)C(=O)[C@H](O)C3=C(C)[C@@H](O)C[C@@](O)([C@@H](OC(=O)c4ccccc4)[C@@H]21)C3(C)C ?
active

----------
Molecular target: Endonuclease 4 (Escherichia coli (strain K12)) (UniProt P0A6C1)
Assay: Counterscreen for APE1 Inhibitors: qHTS Validation Assay for Inhibitors of Endonuclease IV (AID 1708)
Details: E. coli endonuclease IV, DNA cleavage fluorescence; series mostly up to 57.1 µM
Records with an inconclusive call do not appear. Calls of active or inactive are those of the source. The call rests on the fitted dose curve; in most records, active means well fitted inhibition curve with a large enough effect; inconclusive means small, poorly fitted or top-dose-only effect; inactive means no such curve, though single readings can be large or run the other way.
Pick one and only one: yes for active, no for inactive

Known results for compounds:
>  <COMPOUND>
C[C@@H]1O[C@H](C[N+](C)(C)C)C[C@H]1O

>  <SYSTEM TESTED>
Endonuclease 4 (Escherichia coli (strain K12)) (UniProt P0A6C1)

>  <LABEL VALUE>
no

$$$$
>  <COMPOUND>
CC(Cc1ccc(O)cc1)NCC(O)c1cc(O)cc(O)c1 (centres undefined)

>  <SYSTEM TESTED>
Endonuclease 4 (Escherichia coli (strain K12)) (UniProt P0A6C1)

>  <LABEL VALUE>
no

$$$$
>  <COMPOUND>
Clc1ccc(C(c2ccc(Cl)cc2)n2cc[n+](CC(OCc3ccc(Cl)cc3Cl)c3ccc(Cl)cc3Cl)c2)cc1 (centres undefined)

>  <SYSTEM TESTED>
Endonuclease 4 (Escherichia coli (strain K12)) (UniProt P0A6C1)

>  <LABEL VALUE>
yes

$$$$

Any idea what this test logged for CC(=O)NCCc1c[nH]c2ccccc12 ?
no
